Listed below: IC (TGI) values for each entry.
System: CAKI-1
Test: NCI human tumor cell panel: CAKI-1 (Renal Cancer)
Type: cell-based
Conditions: CAKI-1, Renal Cancer, read-out: Log10 TGI (converted)
Form entry: value (nM) — number only.

The examples below pair each entry with its known result.
For the compound O=Cc1ccc(-c2ccc(-c3ccc(C=O)[se]3)[se]2)[se]1 , what IC (TGI) is on record?
933

Here is the next compound: O=Cc1ccc(-c2ccc(-c3ccc[se]3)[se]2)[se]1
708

Turning now to a further record.
For the compound O=Cc1ccc(-c2ccc(-c3ccc(C=O)[se]3)s2)[se]1 , what IC (TGI) is on record?
15100

###

Listed below: GI50 values for each entry.
System: SK-OV-3
Experiment: NCI human tumor cell panel: SK-OV-3 (Ovarian Cancer)
Format: cell-based
Settings: SK-OV-3, read-out: Log10 GI50 (converted)
Form entry: value (µM) — number only.

For the compound OCc1ccc(-c2ccc(-c3ccc(CO)[se]3)s2)s1 [compound 688830] , what GI50 is on record?
3.24

Here is the next compound: O=Cc1ccc(-c2ccc(-c3ccc(C=O)[se]3)s2)s1 [compound 688829]
26.3

Turning now to a further record.
For the compound OCc1ccc(-c2ccc(-c3ccc[se]3)s2)[se]1 [compound 676631] , what GI50 is on record?
45.7

###

Test system: SF-539
Experiment: NCI human tumor cell panel: SF-539 (CNS Cancer)
Format: cell-based
Details: SF-539, CNS Cancer, read-out: Log10 GI50 (converted)
VALUE_TYPE: GI50

The examples below pair each entry with its known result.
For the compound O=Cc1ccc(-c2ccc(-c3cccs3)[se]2)s1 , what GI50 is on record?
51.3 µM

Here is the next compound: O=Cc1ccc(-c2ccc(-c3ccc[se]3)[se]2)[se]1
17 µM

New cases:
For the compound OCc1ccc(-c2ccc(-c3cccs3)[se]2)s1 , what GI50 is on record?
> 100 µM

Here is the next compound: O=Cc1ccc(-c2ccc(-c3ccc(C=O)s3)[se]2)s1
> 100 µM

Here is the next compound: O=Cc1ccc(-c2ccc(-c3ccc(C=O)[se]3)[se]2)[se]1
> 100 µM

Here is the next compound: O=Cc1ccc(-c2ccc(-c3ccc(C=O)[se]3)s2)[se]1
> 100 µM

###

Test system: CCRF-CEM
Assay: NCI human tumor cell panel: CCRF-CEM (Leukemia)
Format: cell-based
Settings: Leukemia, read-out: Log10 GI50 (converted)
VALUE_TYPE: GI50

The examples below pair each entry with its known result.
For the compound O=Cc1ccc(-c2ccc(-c3ccc(C=O)[se]3)[se]2)[se]1 , what GI50 is on record?
> 100 µM

Here is the next compound: OCc1ccc(-c2ccc(-c3cccs3)[se]2)s1
> 100 µM

Here is the next compound: O=Cc1ccc(-c2ccc(-c3ccc(C=O)[se]3)s2)[se]1
> 100 µM

Here is the next compound: O=Cc1ccc(-c2ccc(-c3ccc(C=O)s3)[se]2)s1
> 100 µM

Here is the next compound: O=Cc1ccc(-c2ccc(-c3cccs3)[se]2)s1
> 100 µM

Turning now to a further record.
For the compound O=Cc1ccc(-c2ccc(-c3ccc[se]3)[se]2)[se]1 , what GI50 is on record?
2.14 µM

###

Tested on: A498
Test: NCI human tumor cell panel: A498 (Renal Cancer)
Type: cell-based
Conditions: A498, Renal Cancer, read-out: Log10 GI50 (converted)
VALUE_TYPE: GI50 (nM)
Form entry: value (nM) — number only.

For the compound O=Cc1ccc(-c2ccc(-c3cccs3)[se]2)s1 [NSC 675346] , what GI50 is on record?
145

Here is the next compound: O=Cc1ccc(-c2ccc(-c3ccc(C=O)[se]3)[se]2)[se]1 [NSC 675245]
309

Here is the next compound: O=Cc1ccc(-c2ccc(-c3ccc[se]3)[se]2)[se]1 [NSC 675244]
1410

Here is the next compound: O=Cc1ccc(-c2ccc(-c3ccc(C=O)s3)[se]2)s1 [NSC 675345]
479

###

Test system: RXF-393
Experiment: NCI human tumor cell panel: RXF-393 (Renal Cancer)
Format: cell-based
Conditions: RXF-393, Renal Cancer, read-out: Log10 TGI (converted)
VALUE_TYPE: IC (TGI) (µM)
Form entry: value (µM) — number only.

For the molecule OCc1ccc(-c2ccc(-c3cccs3)[se]2)s1 , what IC (TGI) is on record?
52.5

Here is the next molecule: O=Cc1ccc(-c2ccc(-c3cccs3)[se]2)s1
42.7

Here is the next molecule: O=Cc1ccc(-c2ccc(-c3ccc[se]3)[se]2)[se]1
8.13

###

Listed below: log10(GI50) values for each entry.
Test system: SW-620
Assay: NCI human tumor cell panel: SW-620 (Colon Cancer)
Type: cell-based
Settings: SW-620, read-out: Log10 GI50 (converted)
Annotation: log10 of GI50, µM basis.

The examples below pair each entry with its known result.
For the compound OCc1ccc(-c2ccc(-c3ccc[se]3)[se]2)[se]1 , what log10(GI50) is on record?
-0.38

Here is the next compound: OCc1ccc(-c2ccc(-c3ccc(CO)[se]3)s2)s1
-1.40

Here is the next compound: O=Cc1ccc(-c2ccc(-c3ccc(C=O)[se]3)s2)s1
-0.08

Here is the next compound: OCc1ccc(-c2ccc(-c3ccc[se]3)s2)[se]1
-0.45

Turning now to a further record.
For the compound OCc1ccc(-c2ccc(-c3ccc(CO)[se]3)[se]2)[se]1 , what log10(GI50) is on record?
0.13

###

System: HOP-62
Assay: NCI human tumor cell panel: HOP-62 (Non-Small Cell Lung Cancer)
Assay type: cell-based
Details: HOP-62, read-out: Log10 GI50 (converted)
VALUE_TYPE: GI50 (nM)
Form entry: value (nM) — number only.

The examples below pair each entry with its known result.
For the compound OCc1ccc(-c2ccc(-c3ccc[se]3)[se]2)[se]1 , what GI50 is on record?
7240

Here is the next compound: O=Cc1ccc(-c2ccc(-c3ccc(C=O)[se]3)s2)s1
251

Here is the next compound: OCc1ccc(-c2ccc(-c3ccc(CO)[se]3)s2)[se]1
75.9

Here is the next compound: OCc1ccc(-c2ccc(-c3ccc(CO)[se]3)s2)s1
61.7

Turning now to a further record.
For the compound OCc1ccc(-c2ccc(-c3ccc(CO)[se]3)[se]2)[se]1 , what GI50 is on record?
5500

###

Tested on: NCI-H23
Test: NCI human tumor cell panel: NCI-H23 (Non-Small Cell Lung Cancer)
Assay type: cell-based
Settings: NCI-H23, Non-Small Cell Lung Cancer, read-out: Log10 GI50 (converted)
VALUE_TYPE: GI50 (µM)
Form entry: value (µM) — number only.

For the molecule O=Cc1ccc(-c2ccc(-c3ccc[se]3)[se]2)[se]1 , what GI50 is on record?
13.5

Here is the next molecule: OCc1ccc(-c2ccc(-c3cccs3)[se]2)s1
20.4

Here is the next molecule: O=Cc1ccc(-c2ccc(-c3cccs3)[se]2)s1
14.5

Here is the next molecule: O=Cc1ccc(-c2ccc(-c3ccc(C=O)s3)[se]2)s1
21.9

###

Test system: NCI-H226
Assay: NCI human tumor cell panel: NCI-H226 (Non-Small Cell Lung Cancer)
Assay type: cell-based
Settings: NCI-H226, read-out: Log10 GI50 (converted)
Listed below: GI50 values for each entry.

Record lookup: for NCI-H226, what GI50 belongs to OCc1ccc(-c2ccc(-c3ccc(CO)[se]3)s2)[se]1 [compound 676632] ?
19.5 nM

Here is the next molecule: OCc1ccc(-c2ccc(-c3ccc[se]3)s2)[se]1 [compound 676631]
50.1 nM

Here is the next molecule: OCc1ccc(-c2ccc(-c3ccc(CO)[se]3)[se]2)[se]1 [compound 675247]
1700 nM

Here is the next molecule: O=Cc1ccc(-c2ccc(-c3ccc(C=O)[se]3)s2)s1 [compound 688829]
891 nM

Here is the next molecule: OCc1ccc(-c2ccc(-c3ccc(CO)s3)[se]2)s1 [compound 675343]
< 10 nM

###

System: MDA-MB-435
Assay: NCI human tumor cell panel: MDA-MB-435 (Breast Cancer)
Format: cell-based
Conditions: MDA-MB-435, Breast Cancer, read-out: Log10 GI50 (converted)
VALUE_TYPE: GI50 (µM)
Form entry: value (µM) — number only.

For the compound O=Cc1ccc(-c2ccc(-c3cccs3)[se]2)s1 , what GI50 is on record?
28.2

Here is the next compound: O=Cc1ccc(-c2ccc(-c3ccc[se]3)[se]2)[se]1
10.2

Turning now to a further record.
For the compound O=Cc1ccc(-c2ccc(-c3ccc(C=O)s3)[se]2)s1 , what GI50 is on record?
58.9
